PROTOCOL_SUMMARY: Study 3: plasma concentration of active substance, single test subject
Assay type: in vivo, human
CONDITION_DETAILS: human, plasma, po; 4 mg, 7.00 h
ATTRIBUTE_MEASURED: concentration at 7 h
Please format your answer as a value with the unit trailing.

In plain terms, CCOc1cc(CC(=O)NC(CC(C)C)c2ccccc2N2CCCCC2)ccc1C(=O)O (racemic) has a documented concentration at 7 h of 21 ng/mL

* * *

PROTOCOL_SUMMARY: Study 2: plasma concentration, HPLC
Format: in vivo, human
CONDITION_DETAILS: human, plasma, po, 2 mg, 2 mg tablet, 2.00 h
ATTRIBUTE_MEASURED: concentration at 2 h (ng/mL)
// units = ng/mL; emit number, no label

In plain terms, CCOc1cc(CC(=O)NC(CC(C)C)c2ccccc2N2CCCCC2)ccc1C(=O)O (racemic) has a documented concentration at 2 h of 51.3

* * *

PROTOCOL_SUMMARY: clinical
CONDITION_DETAILS: human, plasma, po, 0.5 mg
ATTRIBUTE_MEASURED: Cmax (ng/mL)
// units = ng/mL; emit number, no label

In plain terms, `CCOc1cc(CC(=O)N[C@@H](CC(C)C)c2ccccc2N2CCCCC2)ccc1C(=O)O` has a documented Cmax of 15

* * *

PROTOCOL_SUMMARY: clinical
CONDITION_DETAILS: human, plasma, po, 2 mg
ATTRIBUTE_MEASURED: concentration at 6 h (ng/mL)
// units = ng/mL; emit number, no label

In plain terms, CCOc1cc(CC(=O)N[C@@H](CC(C)C)c2ccccc2N2CCCCC2)ccc1C(=O)O [AG-EE 623 ZW] has a documented concentration at 6 h of 0.2

* * *

PROTOCOL_SUMMARY: Study 3: plasma concentration of active substance, single test subject
Assay type: in vivo, human
CONDITION_DETAILS: human, plasma, po; 2 mg, 2.50 h
ATTRIBUTE_MEASURED: concentration at 2.5 h (ng/mL)
// units = ng/mL; emit number, no label

In plain terms, CCOc1cc(CC(=O)NC(CC(C)C)c2ccccc2N2CCCCC2)ccc1C(=O)O (racemic) has a documented concentration at 2.5 h of 80

* * *

PROTOCOL_SUMMARY: Study 3: plasma concentration of active substance, single test subject
Type: in vivo, human
CONDITION_DETAILS: human, plasma, po; 4 mg, 0.75 h
ATTRIBUTE_MEASURED: concentration at 0.75 h (ng/mL)
// units = ng/mL; emit number, no label

In plain terms, CCOc1cc(CC(=O)NC(CC(C)C)c2ccccc2N2CCCCC2)ccc1C(=O)O (racemic) [AG-EE 388 ZW] has a documented concentration at 0.75 h of 10

* * *

PROTOCOL_SUMMARY: Study 1: plasma concentration, non-stereoselective HPLC
Type: in vivo, human
CONDITION_DETAILS: human, plasma, po, 2 mg, 2 mg capsule, 0.50 h
ATTRIBUTE_MEASURED: concentration at 0.5 h (µg/mL)
// units = µg/mL; emit number, no label

In plain terms, CCOc1cc(CC(=O)NC(CC(C)C)c2ccccc2N2CCCCC2)ccc1C(=O)O (racemic) [AG-EE 388 ZW] has a documented concentration at 0.5 h of 0.0558

* * *

Tested on: blood glucose
PROTOCOL_SUMMARY: Test for hypoglycemic activity in fasted female rats (oral)
Assay type: in vivo
CONDITION_DETAILS: Rattus norvegicus, po; 1 mg/kg, 3 h; read-out: Change in glucose content compared with control
ATTRIBUTE_MEASURED: change in vivo at 1 mg/kg (%)
// units = %; emit number, no label

The observed change in vivo at 1 mg/kg for COc1cc(CC(=O)NC(C)c2ccccc2N2CCCCC2)ccc1C(=O)O (centres unmarked) when tested with blood glucose stands at -23

The observed change in vivo at 1 mg/kg for CCOc1cc(CC(=O)NC(c2ccccc2)c2ccc(C)cc2N2CCCCC2)ccc1C(=O)O (centres unmarked) when tested with blood glucose stands at -35

The observed change in vivo at 1 mg/kg for COc1cc(CC(=O)NC(c2ccccc2)c2ccccc2N2CCCCC2)ccc1C(=O)O (centres unmarked) when tested with blood glucose stands at -38

The observed change in vivo at 1 mg/kg for CCOc1cc(CC(=O)NC(C(=O)OC(C)C)c2ccccc2N2CCCCC2)ccc1C(=O)O (centres unmarked) when tested with blood glucose stands at -18

The observed change in vivo at 1 mg/kg for CCOc1cc(CC(=O)NC(c2ccccc2)c2ccccc2N2CCCCC2)ccc1C(=O)O (centres unmarked) when tested with blood glucose stands at -37

* * *

PROTOCOL_SUMMARY: Study 3: plasma concentration of active substance, single test subject
Type: in vivo, human
CONDITION_DETAILS: human, plasma, po; 2 mg, 1.25 h
ATTRIBUTE_MEASURED: concentration at 1.25 h (ng/mL)
// units = ng/mL; emit number, no label

In plain terms, CCOc1cc(CC(=O)NC(CC(C)C)c2ccccc2N2CCCCC2)ccc1C(=O)O (racemic) has a documented concentration at 1.25 h of 44

* * *

PROTOCOL_SUMMARY: clinical
CONDITION_DETAILS: human, plasma, po, 1 mg
ATTRIBUTE_MEASURED: concentration at 2 h
Please format your answer as a value with the unit trailing.

In plain terms, CCOc1cc(CC(=O)NC(CC(C)C)c2ccccc2N2CCCCC2)ccc1C(=O)O (racemic) has a documented concentration at 2 h of 0.024 µg/mL

* * *

PROTOCOL_SUMMARY: clinical
CONDITION_DETAILS: human, plasma, po
ATTRIBUTE_MEASURED: Tmax

In plain terms, `CCOc1cc(CC(=O)N[C@@H](CC(C)C)c2ccccc2N2CCCCC2)ccc1C(=O)O` has a documented Tmax of 30 min

* * *

PROTOCOL_SUMMARY: Study 3: plasma concentration of active substance, single test subject
Assay type: in vivo, human
CONDITION_DETAILS: human, plasma, po; 4 mg, 3.00 h
ATTRIBUTE_MEASURED: concentration at 3 h
Please format your answer as a value with the unit trailing.

In plain terms, CCOc1cc(CC(=O)NC(CC(C)C)c2ccccc2N2CCCCC2)ccc1C(=O)O (racemic) [AG-EE 388 ZW] has a documented concentration at 3 h of 109 ng/mL

* * *

PROTOCOL_SUMMARY: clinical
CONDITION_DETAILS: human, plasma, iv, 1 mg
ATTRIBUTE_MEASURED: concentration at 0.28 h (ng/mL)
// units = ng/mL; emit number, no label

In plain terms, CCOc1cc(CC(=O)NC(CC(C)C)c2ccccc2N2CCCCC2)ccc1C(=O)O (racemic) [AG-EE 388 ZW] has a documented concentration at 0.28 h of 102

* * *

PROTOCOL_SUMMARY: Study 2: plasma concentration, HPLC
Assay type: in vivo, human
CONDITION_DETAILS: human, plasma, po, 2 mg, 2 mg tablet, 3.00 h
ATTRIBUTE_MEASURED: concentration at 3 h

In plain terms, CCOc1cc(CC(=O)NC(CC(C)C)c2ccccc2N2CCCCC2)ccc1C(=O)O (racemic) has a documented concentration at 3 h of 32.4 ng/mL

* * *

PROTOCOL_SUMMARY: Study 2: plasma concentration, HPLC
Format: in vivo, human
CONDITION_DETAILS: human, plasma, po, 2 mg, 2 mg capsule, 0.33 h
ATTRIBUTE_MEASURED: concentration at 0.33 h (µg/mL)
// units = µg/mL; emit number, no label

In plain terms, CCOc1cc(CC(=O)NC(CC(C)C)c2ccccc2N2CCCCC2)ccc1C(=O)O (racemic) [AG-EE 388 ZW] has a documented concentration at 0.33 h of 0.0175

* * *

PROTOCOL_SUMMARY: clinical
CONDITION_DETAILS: human, plasma, po, 0.5 mg
ATTRIBUTE_MEASURED: concentration at 0.5 h (ng/mL)
// units = ng/mL; emit number, no label

In plain terms, `CCOc1cc(CC(=O)N[C@@H](CC(C)C)c2ccccc2N2CCCCC2)ccc1C(=O)O` has a documented concentration at 0.5 h of 4.7

* * *

PROTOCOL_SUMMARY: Study 3: plasma concentration of active substance, single test subject
Type: in vivo, human
CONDITION_DETAILS: human, plasma, po; 4 mg, 1.00 h
ATTRIBUTE_MEASURED: concentration at 1 h (ng/mL)
// units = ng/mL; emit number, no label

In plain terms, CCOc1cc(CC(=O)NC(CC(C)C)c2ccccc2N2CCCCC2)ccc1C(=O)O (racemic) [AG-EE 388 ZW] has a documented concentration at 1 h of 72

* * *

For each of the compounds below, state its bioavailability.
PROTOCOL_SUMMARY: clinical
CONDITION_DETAILS: human, plasma, po, 1 mg
// units = %; emit number, no label

In plain terms, CCOc1cc(CC(=O)N[C@@H](CC(C)C)c2ccccc2N2CCCCC2)ccc1C(=O)O [AG-EE 623 ZW] has a documented bioavailability of 76

In plain terms, CCOc1cc(CC(=O)N[C@H](CC(C)C)c2ccccc2N2CCCCC2)ccc1C(=O)O [AG-EE 624 ZW] has a documented bioavailability of 83
